Cited source for all entries: patent US10906894B2

Record form. Attribute: Emax. Fill in for each entry.
# target-or-test-system: GPR119 (Homo sapiens)
# Sequence (Q8TDV5 whole entry): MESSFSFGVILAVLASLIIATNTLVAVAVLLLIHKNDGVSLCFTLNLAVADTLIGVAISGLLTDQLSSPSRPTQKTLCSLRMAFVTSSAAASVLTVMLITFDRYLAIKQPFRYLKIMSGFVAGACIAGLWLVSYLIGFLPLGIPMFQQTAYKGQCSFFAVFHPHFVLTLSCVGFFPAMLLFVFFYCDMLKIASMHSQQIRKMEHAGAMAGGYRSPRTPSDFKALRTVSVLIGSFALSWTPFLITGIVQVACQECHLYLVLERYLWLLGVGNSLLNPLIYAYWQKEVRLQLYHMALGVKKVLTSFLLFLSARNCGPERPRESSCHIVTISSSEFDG
# assay-protocol: LANCE Ultra cAMP assay: stimulation of GPR119-mediated cAMP production in CHO cells stably expressing human GPR119 receptor
# Assay type: cell-based
# measurement-setup: CHO; Table A-2 entries 1-17; protocol as described; 100% = 10 uM Forskolin; read-out: % cAMP Max. relative to forscolin

Completed entries (count: 3):
{"structure": "CC(C)C(=O)N1CCC(COc2ccc(-c3ccc4c(c3)OCS4(=O)=O)cc2F)CC1", "Emax": "77%"}
{"structure": "O=S1(=O)COc2cc(-c3ccc(OCC4CN(c5ncc(Cl)cn5)C4)c(F)c3)ccc21", "Emax": "80%"}
{"structure": "NCC(=O)N1CCC(COc2ccc(-c3ccc4c(c3)OCS4(=O)=O)cc2F)CC1", "Emax": "67%"}

# context switch: different compound, same Emax
Query :: Look up Emax for this compound: CC(C)(C)C(=O)N1CCC(COc2ccc(-c3ccc4c(c3)OCS4(=O)=O)cc2F)CC1
Result :: 80%
